value_kind: melting point

compound: O=S(=O)(Nc1ccc(Cl)cc1C=NOCc1ccc(C(F)(F)F)cc1C(F)(F)F)C(F)(F)F
melting point: 65 to 67 °C

compound: N#Cc1cc(C(F)(F)F)[nH]c1-c1sc(Cl)c(Cl)c1Cl
melting point: 220 to 221 °C

*Q* So what's the measured melting point for this one? CS(=O)(=O)N1C[C@H](S)C[C@H]1CSCc1ccccc1
*A* 102 to 104 °C

*Q* So what's the measured melting point for this one? N#Cc1ccc(Nn2cnnc2)cc1-c1ccccc1
*A* 181 to 182 °C

*Q* So what's the measured melting point for this one? CC(C)(C)[Si](C)(C)OCC1(CO[Si](C)(C)C(C)(C)C)COc2cc(I)cc3c(=O)c(C(=O)NCc4ccc(Cl)cc4)cn1c23
*A* 158 to 159 °C

*Q* So what's the measured melting point for this one? COc1ccc(C(O)CNCCc2ccc(OC)c(OC)c2)cc1 (stereo not given)
*A* 92 °C

*Q* So what's the measured melting point for this one? COC(=O)COc1ccc(C[C@H](NC(=O)OC(C)(C)C)C(=O)O)cc1
*A* 75 to 79 °C

*Q* So what's the measured melting point for this one? CN(C)CCC(O)c1ccc(Cl)s1 (stereo not given)
*A* 76 to 77 °C

*Q* So what's the measured melting point for this one? CC(=O)C(=CS(=O)(=O)N(C)C)c1cccc([N+](=O)[O-])c1
*A* 115 to 120 °C

*Q* So what's the measured melting point for this one? CCCCNC(=O)NC1Cc2ccc(C3=NNC(=O)CC3)cc2C1 (stereo not given)
*A* 206 to 207 °C

*Q* So what's the measured melting point for this one? O=C(O)c1ccc(-c2csc(-c3ccc(Cl)cc3)n2)cc1
*A* 284 to 285 °C
